Hey, just so you know, these numbers are from PubChem BioAssay AID218.

Tested on: C57BL/6 mice, Adenocarcinoma 755 sc, tumor weight T/C
Assay: NCI In Vivo Anticancer Drug Screen. Data for tumor model Adenocarcinoma 755 (subcutaneous) in C57BL/6 mice
Conditions: endpoint: mean tumor weight; dose: 2.0 mg/kg/injection; schedule: Q01DX011 (ip); vehicle: saline; higher = larger tumour
MEASUREMENT_KIND: T/C

# annotated cases, reported T/C shown
C=CC(CN1CC1)OC(C)=O (centres undefined)	66 % of control
CNc1ncnc2c1cnn2C	84 % of control
NC(=O)c1ccc(N)nc1	48 % of control

Now consider a different compound.
Exercise: Dear colleague, I am looking for the recorded T/C of the following compound: CN(Cc1cnc2nc(N)nc(N)c2n1)c1ccc(C(=O)N[C@@H](CCC(=O)O)C(=O)O)cc1
Solution: 87 % of control
